Listed compounds paired with reported pEC50
test system: SARS-CoV-2 (USA_WA1/2020); experiment: microbe, parasite or virus in culture; assay type: cell-based; details: SARS-CoV-2 CPE assay, Vero E6 cells; read-out: CPE EC50
pEC50: −log10 of the molar value.
READOUT TYPE: pEC50

{"COMPOUND": "CS(=O)(=O)NCC1CCC(Nc2nc3c(s2)CCSc2ccccc2-3)CC1 (centres unmarked)", "OBSERVED RESULT": 4.90}
{"COMPOUND": "COc1cccc(NC[C@@H](O)Cn2c3ccc(Br)cc3c3cc(Br)ccc32)c1 [(R)-P7C3-Ome]", "OBSERVED RESULT": 4.90}
{"COMPOUND": "O=S(=O)(c1cccc2c(Cl)cccc12)N1CCCNCC1", "OBSERVED RESULT": 4.90}
{"COMPOUND": "NC(=O)c1cccc(-c2cc(Nc3ccc(OC(F)(F)F)cc3)ncn2)c1", "OBSERVED RESULT": 4.95}
{"COMPOUND": "Cc1cc(C)c(CNC(=O)c2cc(-c3ccc(N4CCN(C)CC4)nc3)cc3c2c(C)cn3C(C)C)c(=O)[nH]1", "OBSERVED RESULT": 4.90}
{"COMPOUND": "O=C(N[C@@H](c1ccccc1)[C@@H]1CCCCN1)c1cccc(C(F)(F)F)c1Cl", "OBSERVED RESULT": 4.85}
{"COMPOUND": "Cl.O=C1Nc2nc(-c3c(O)cccc3OCC3CC3)cc([C@@H]3CCCNC3)c2CO1 [Bay-65-1942 hydrochloride]", "OBSERVED RESULT": 4.95}
{"COMPOUND": "O=C1NC(=O)/C(=C/c2cccc(C(F)(F)F)c2)S1", "OBSERVED RESULT": 4.90}
